Assignment: determine reported growth for the given compounds.
# System: RXF 393 renal
# test_summary: NCI-60 one-dose screen, 48 h (100 = growth as untreated, 0 = no growth, -100 = all killed)
# condition_set: 10 µM unless noted
This is part of a sample that, as a whole, favours compounds with a hit. Of some 83,000 tested, about 20% had one in any assay.
Answers are plain numbers, in %.

Solved cases (5 shown):
query: Supply measured growth of "Cn1cc(-c2csc(-c3cn(CCN)c4ccc(Br)cc34)n2)c2cccnc21" in your reply.
result: 75.6

query: Item CC(C)(C)c1[nH]nc2c1C(c1cc3ccccc3[nH]c1=O)Nc1cc(C(=O)OCc3ccccc3)ccc1N2 (stereo unspecified) : provide growth
result: 59.7

query: Query growth for "C=C(C)[C@@H]1CC[C@]2(CN)CC[C@]3(C)[C@H](CC[C@@H]4[C@@](C)(CCCN)[C@H](C(=C)C)CC[C@]43C)[C@@H]12"
result: 79

query: Supply reported growth belonging to this compound: "CC(C)(C)n1cc(-c2ccnc(NCCCNS(=O)(=O)c3ccc(Cl)cc3)c2)c(-c2cccc(F)c2)n1"
result: 72

query: Read off the recorded growth for O=C1c2ccccc2NC(c2cn(-c3ccccc3)nc2-c2cccnc2)N1Cc1ccccc1 (stereo unspecified)
result: 97.6

Now turn to the next compound.
query: Output growth of "O=C1NC(=Nc2ccc(S(=O)(=O)Nc3nccs3)cc2)S/C1=C\c1coc2ccccc2c1=O"
result: 105
